Test system: L1210 leukemia ip in BDF1 mice, survival T/C
Experiment: NCI In Vivo Anticancer Drug Screen. Data for tumor model L1210 Leukemia (intraperitoneal) in B6D2F1 (BDF1) mice
Settings: endpoint: mean survival time; dose: 400.0 mg/kg/injection; schedule: Q01DX009 (ip); vehicle: saline; higher = longer survival
Method: The antitumor activity of compounds was measured in mice bearing transplantable tumors. Survival or tumor size were measured and the results are expressed as the measurement made in the treated group (T) divided by the measurement made in the vehicle treated control group (C). The tumor model used in this assay is L1210 Leukemia (intraperitoneal) in B6D2F1 (BDF1) mice
Toxic doses and inconclusive results are not listed.
measured.parameter: T/C

// T/C value for CCOC(=O)C(OCc1ccccc1)(C(=O)OCC)C(C)C : 106 % of control

Per the records, this compound ( O=c1ccn2c(n1)OC1C(O)C(CO)OC12 (stereo not drawn) ) has T/C equal to 101 % of control

Reported T/C of O=C(O)CNCc1ccc(Cl)c(Cl)c1 : 95 % of control

====

system: L1210 leukemia ip in BDF1 mice, survival T/C; experiment: NCI In Vivo Anticancer Drug Screen. Data for tumor model L1210 Leukemia (intraperitoneal) in B6D2F1 (BDF1) mice; conditions: endpoint: mean survival time; dose: 100.0 mg/kg/injection; schedule: Q01DX001 (ip); vehicle: carboxymethylcellulose (CMC); higher = longer survival
Toxic doses and inconclusive results are not listed.
measured.parameter: T/C

Observed T/C, L1210 leukemia ip in BDF1 mice, survival T/C, O=C(O)C1(Nc2ccc(-c3ccc(NC4(C(=O)O)CCCC4)cc3)cc2)CCCC1 : 90 % of control

// compound O=C(c1ccccc1)c1ccc(C2CCCCC2)cc1 , assay L1210 leukemia ip in BDF1 mice, survival T/C, T/C value: 104 % of control

Value (T/C, L1210 leukemia ip in BDF1 mice, survival T/C) for record CC(O)CN1c2ccccc2Sc2ccc(Cl)cc21 (configuration not stated) = 97 % of control

// assay L1210 leukemia ip in BDF1 mice, survival T/C, entry Cc1cc(N(CCCl)CCCl)ccc1/C=N\Nc1nncn1N , T/C value = 100 % of control

Entry S=P(NCCCCCNP(=S)(N1CC1)N1CC1)(N1CC1)N1CC1 , L1210 leukemia ip in BDF1 mice, survival T/C data, T/C value: 91 % of control

Item: CC(=O)N(c1ccccc1)c1nc(CCl)cs1 | System: L1210 leukemia ip in BDF1 mice, survival T/C | T/C: 100 % of control

O=C1NC(=S)S/C1=C/c1ccc(/C=C2/SC(=S)NC2=O)cc1 tested on L1210 leukemia ip in BDF1 mice, survival T/C gave T/C: 94 % of control

Item CC(C)(C)COC(=O)c1ccccc1 was tested on L1210 leukemia ip in BDF1 mice, survival T/C; the reported T/C is 102 % of control

Summary: COc1ccc(CC(=O)NCCc2ccccc2)cc1 , L1210 leukemia ip in BDF1 mice, survival T/C, T/C = 96 % of control

So the reported T/C for CCC(=O)C(CC(C)[N+](C)(C)C)(c1ccccc1)c1ccccc1 (configuration not stated) , on L1210 leukemia ip in BDF1 mice, survival T/C, turned out to be 92 % of control

Entry COc1ccc([N+](=O)[O-])cc1NC(=O)C(Cl)Cl ; assay system L1210 leukemia ip in BDF1 mice, survival T/C; T/C recorded at 99 % of control

Item: Nn1c(=S)[nH]n2cnnc12 | System: L1210 leukemia ip in BDF1 mice, survival T/C | T/C: 98 % of control

Form field T/C for item COc1ccc(NC(=O)C(Cl)Cl)cc1NC(C)=O on L1210 leukemia ip in BDF1 mice, survival T/C: 96 % of control

GET /values?item= O=C(O)CN(CCN(CC(=O)O)CC(=O)O)CCN(CC(=O)O)CC(=O)O &system= L1210 leukemia ip in BDF1 mice, survival T/C returns T/C: 93 % of control

Known value: L1210 leukemia ip in BDF1 mice, survival T/C T/C of the compound Nc1cc(Br)cc2[nH]c(=O)c3cc(Br)ccc3c12 equals 100 % of control

Recorded T/C for O=[N+]([O-])c1ccc(OCn2ncc3ccc([N+](=O)[O-])cc32)cc1 on L1210 leukemia ip in BDF1 mice, survival T/C was 93 % of control

Value sought: T/C, system L1210 leukemia ip in BDF1 mice, survival T/C, item CCOP(=O)(Nc1ccc2oc(=O)c3ccccc3c2c1)OCC . Result: 100 % of control

L1210 leukemia ip in BDF1 mice, survival T/C data for O=NN(CCCl)C(=O)Nc1ccccc1Cl ; its T/C: 87 % of control

GET /values?item= OCC1OC(n2cnc3c(NO)ncnc32)CC1O (configuration not stated) &system= L1210 leukemia ip in BDF1 mice, survival T/C returns T/C: 109 % of control

Entry COc1ccc(/C(C)=N\OC(=O)N(C)C)c(OC)c1 : T/C on L1210 leukemia ip in BDF1 mice, survival T/C = 100 % of control

Test item CCCNC(=O)Nc1ccc(Cl)cc1 ; L1210 leukemia ip in BDF1 mice, survival T/C; reported T/C was 103 % of control

Field T/C (system: L1210 leukemia ip in BDF1 mice, survival T/C) for entry O=C1c2ccccc2C(=O)C2OC12 (configuration not stated) = 109 % of control

Query COc1ccccc1CN1CCCN(Cc2ccccc2OC)C1c1cc(OC)c(O)c(OC)c1 on L1210 leukemia ip in BDF1 mice, survival T/C; T/C returned: 98 % of control

Observed T/C, L1210 leukemia ip in BDF1 mice, survival T/C, CC1(C)OC(CF)C2OC(C)(C)OC(CF)C2O1 (configuration not stated) : 96 % of control

Let me check: COc1cc2c(cc1OC)/C(=C(\C#N)CCC(C)=O)NCC2 , system L1210 leukemia ip in BDF1 mice, survival T/C, measured T/C is 92 % of control

// compound Cc1ccc2sc(C)cc(=O)c2c1 , assay L1210 leukemia ip in BDF1 mice, survival T/C, T/C value: 100 % of control

Noted T/C for Cc1c(CC=C(c2ccccc2)c2ccccc2)cccc1C[N+](C)(C)C , tested on L1210 leukemia ip in BDF1 mice, survival T/C: 93 % of control
